Assay: Ratio of binding affinities for A2 receptor compared to that of A3 receptor
property: Ratio

// worked examples, Ratio included
compound	Ratio
CCNC(=O)[C@H]1O[C@@H](n2cnc3c(NCc4cccc([N+](=O)[O-])c4)ncnc32)[C@H](O)[C@@H]1O	4
CNC(=O)[C@H]1OC(n2cnc3c(NCc4ccc(N)cc4)ncnc32)[C@H](O)[C@@H]1O (stereo partly drawn)	110

(1) CNC(=O)[C@H]1OC(n2cnc3c(NCc4cccc(C(F)(F)F)c4)ncnc32)[C@H](O)[C@@H]1O (stereo partly drawn)
(2) CCNC(=O)[C@H]1O[C@@H](n2cnc3c(NCc4ccccc4[N+](=O)[O-])ncnc32)[C@H](O)[C@@H]1O
I'm curious, which of these has a smaller Ratio number: 1 or 2 ? I would appreciate it if you answered with the label of your choice. 2
(2: 8.6, 1: 19)

(P) CCNC(=O)[C@H]1OC(n2cnc3c(N)[n+]([O-])cnc32)[C@H](O)[C@@H]1O (stereo partly drawn)
(Q) CCNC(=O)[C@H]1O[C@@H](n2cnc3c(NCc4cccc(Cl)c4)ncnc32)[C@H](O)[C@@H]1O
(R) CNC(=O)[C@H]1O[C@@H](n2cnc3c(NCc4cccc(Br)c4)ncnc32)[C@H](O)[C@@H]1O
Ascending by Ratio, please. # output: labels, in the requested order P, Q, R
(P: 0.22, Q: 17, R: 34)

###

Experiment: Ratio of binding affinities for A2 receptor compared to that of A3 receptor
property: Ratio

// worked examples, Ratio included
molecule	measured number
CCNC(=O)[C@H]1O[C@@H](n2cnc3c(NCc4cccc(F)c4)ncnc32)[C@H](O)[C@@H]1O	3
CCNC(=O)[C@H]1O[C@@H](n2cnc3c(NCc4ccc(OC)cc4)ncnc32)[C@H](O)[C@@H]1O	55
CNC(=O)[C@H]1OC(n2cnc3c(NCc4ccc(Br)cc4)ncnc32)[C@H](O)[C@@H]1O (stereo not given in full)	200
CCNC(=O)[C@H]1O[C@@H](n2cnc3c(N)[n+](Cc4ccc([N+](=O)[O-])cc4)cnc32)[C@H]([O-])[C@@H]1O	3.2
CCNC(=O)[C@H]1O[C@@H](n2cnc3c(N)[n+](Cc4ccccc4[N+](=O)[O-])cnc32)[C@H](O)[C@@H]1[O-]	3.1

(P) CCNC(=O)[C@H]1O[C@@H](n2cnc3c(NCc4ccc([N+](=O)[O-])cc4)ncnc32)[C@H](O)[C@@H]1O
(Q) NC(=O)[C@H]1O[C@@H](n2cnc3c(NCc4ccccc4)ncnc32)[C@H](O)[C@@H]1O
(R) CCNC(=O)[C@H]1O[C@@H](n2cnc3c(N[C@H](C)c4ccccc4)ncnc32)[C@H](O)[C@@H]1O
(S) CNC(=O)[C@H]1OC(n2cnc3c(NCc4cccc(S(=O)(=O)O)c4)ncnc32)[C@H](O)[C@@H]1O (stereo not given in full)
(T) CCNC(=O)[C@H]1O[C@@H](n2cnc3c(NCc4ccccc4OC)ncnc32)[C@H](O)[C@@H]1O
Ascending by Ratio, please. # output: labels, in the requested order Q, T, S, R, P
(Q: 1.7, T: 3, S: 6.9, R: 14, P: 64)

###

Assay: Ratio of binding affinities for A2 receptor compared to that of A3 receptor
property: Ratio

// worked examples, Ratio included
compound	property	measured number
CNC(=O)[C@H]1O[C@@H](n2cnc3c(NCc4cccc(Cl)c4)ncnc32)[C@H](O)[C@@H]1O	Ratio	25
CNC(=O)[C@H]1OC(n2cnc3c(NCc4cccc(NC(C)=O)c4)ncnc32)[C@H](O)[C@@H]1O (stereo partly drawn)	Ratio	24
CCNC(=O)[C@H]1O[C@@H](n2cnc3c(NCc4cccc(OC)c4)ncnc32)[C@H](O)[C@@H]1O	Ratio	8.8

(I) CCNC(=O)[C@H]1O[C@@H](n2cnc3c(NCc4cccc(I)c4)ncnc32)[C@H](O)[C@@H]1O
(II) O=C(NC1CC1)[C@H]1OC(n2cnc3c(NCc4ccccc4)ncnc32)[C@H](O)[C@@H]1O (stereo partly drawn)
(III) CNC(=O)[C@H]1O[C@@H](n2cnc3c(NCc4cccc(C)c4)ncnc32)[C@H](O)[C@@H]1O
(IV) CNC(=O)[C@H]1OC(n2cnc3c(NCc4cccc(N)c4)ncnc32)[C@H](O)[C@@H]1O (stereo partly drawn)
(V) CCNC(=O)[C@H]1O[C@@H](n2cnc3c(NCc4cccc(C)c4)ncnc32)[C@H](O)[C@@H]1O
# desc sort on Ratio across 5 compounds # output: labels, in the requested order III, IV, V, I, II
